- target or system: hCIS-SH2-BC complex (ternary complex of human GST-CIS-SH2 construct, residues 66-258 with PEST region 174-202 … (UniProt Q9NSE2 66-258; Q15370 1-118; P83940 17-112)
- measurement description: ITC
Non-standard residues stand in square brackets, D forms with d. No end group written: not given here. pY = N[C@@H](Cc1ccc(OP(=O)(O)O)cc1)C(=O)O
endpoint: Kd

// worked examples, Kd included
DDA[pY]CTFPSRDD [IL-2Rβ cytoplasmic domain phosphopeptide (Tyr392 phosphorylated)] | 1800 nM
YDP[pY]SEEDPDEG [IL-2Rβ cytoplasmic domain phosphopeptide (Tyr361 phosphorylated)] | 1500 nM

[in] Answer with reported Kd of AIETDKE[pY]YTVKDDRD [JAK1 activation loop phosphopeptide (Tyr1034 phosphorylated)]
[out] 2100 nM

[in] Answer with reported Kd of CQV[pY]FTYDPYSE [IL-2Rβ cytoplasmic domain phosphopeptide (Tyr355 phosphorylated)]
[out] 940 nM

[in] Answer with reported Kd of LLPLDKDYYVVREPGQ (not fully specified (residue 8)) [JAK3 activation loop phosphopeptide (Tyr980 phosphorylated)]
[out] 800 nM
